- Target or test system: Heat shock factor protein 1 (Homo sapiens) (UniProt Q00613)
- Sequence (whole entry): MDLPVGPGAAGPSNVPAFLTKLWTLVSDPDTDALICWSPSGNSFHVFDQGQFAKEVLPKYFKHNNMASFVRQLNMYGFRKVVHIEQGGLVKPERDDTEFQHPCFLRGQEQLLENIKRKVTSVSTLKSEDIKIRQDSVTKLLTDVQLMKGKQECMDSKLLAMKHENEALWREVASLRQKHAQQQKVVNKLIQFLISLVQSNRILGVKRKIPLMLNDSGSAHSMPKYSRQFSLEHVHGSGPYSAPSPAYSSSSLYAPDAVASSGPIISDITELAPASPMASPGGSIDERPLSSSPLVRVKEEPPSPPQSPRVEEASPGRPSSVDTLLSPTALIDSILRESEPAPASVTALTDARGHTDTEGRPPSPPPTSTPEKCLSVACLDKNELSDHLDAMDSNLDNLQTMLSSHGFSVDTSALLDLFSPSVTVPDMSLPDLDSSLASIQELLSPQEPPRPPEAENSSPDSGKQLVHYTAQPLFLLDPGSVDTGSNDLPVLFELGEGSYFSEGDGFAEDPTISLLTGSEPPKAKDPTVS
- Protocol summary: Inhibition of recombinant human HSF1 expressed in Escherichia coli BL21 (DE3) assessed as reduction in HSF1 trimer-5-fluorescein labeled HSE interaction at 400 uM preincubated for 1 hr followed by DNA tracer addition and measured after 15 mins by competitive fluorescence polarization assay
Readout kind: inhibition (%)

For orientation, consider the following solved cases.
Ac-DKNELSDHL-NH2    0.4
Ac-LAMKHENEAL-NH2    8.2
Ac-RQKHAQQQKVVNKL-NH2    22

[I] Ac-HLDAMDSNLDNLQTMLSSHGFSVDTSALLD-NH2
[II] Ac-WREVASL-NH2
Query: Consider entries I and II . Which has the numerically lower inhibition? # answer = label of selected item
Result: II

[1] Ac-DAMDSNL-NH2
[2] Ac-DVQLMKGKQECMDSKLLAMKHENEALWREV-NH2
Query: Consider entries 1 and 2 . Which has the numerically lower inhibition? # answer = label of selected item
Result: 2

* * *

- Target or test system: Heat shock factor protein 1 (Homo sapiens, UniProt Q00613)
- Sequence (Q00613 whole entry): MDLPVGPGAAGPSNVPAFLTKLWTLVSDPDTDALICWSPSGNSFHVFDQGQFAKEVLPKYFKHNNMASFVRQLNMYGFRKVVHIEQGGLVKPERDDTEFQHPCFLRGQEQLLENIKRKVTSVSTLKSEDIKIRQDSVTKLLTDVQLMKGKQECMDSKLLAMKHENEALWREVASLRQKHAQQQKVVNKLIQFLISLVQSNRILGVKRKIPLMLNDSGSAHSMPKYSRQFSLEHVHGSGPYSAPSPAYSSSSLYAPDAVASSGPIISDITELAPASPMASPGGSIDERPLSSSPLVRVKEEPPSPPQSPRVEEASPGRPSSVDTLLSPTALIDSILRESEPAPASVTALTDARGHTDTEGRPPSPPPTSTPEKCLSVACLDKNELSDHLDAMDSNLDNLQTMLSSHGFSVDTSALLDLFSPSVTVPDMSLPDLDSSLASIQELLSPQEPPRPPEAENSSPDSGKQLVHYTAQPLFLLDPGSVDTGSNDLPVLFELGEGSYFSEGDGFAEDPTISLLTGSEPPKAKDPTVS
- Protocol summary: Inhibition of recombinant human HSF1 expressed in Escherichia coli BL21 (DE3) assessed as reduction in HSF1 trimer-5-fluorescein labeled HSE interaction preincubated of protein with DNA tracer up to 24 hrs followed by compound addition and measured after 15 mins by fluorescence polarization assay
- Study conditions: in the assay text read “measured after 1 hr” for “measured after 15 mins”
Readout kind: pIC50
Scale: pIC50 equals -log10([C]), with [C] in mol/L.

Query: I have this substance here, `Ac-DKNELSDHLDAMDSNL-NH2` , and I need its recorded pIC50.
Result: 4.85

* * *

- Target or test system: Heat shock factor protein 1 (Homo sapiens, UniProt Q00613)
- Sequence (Q00613 whole entry): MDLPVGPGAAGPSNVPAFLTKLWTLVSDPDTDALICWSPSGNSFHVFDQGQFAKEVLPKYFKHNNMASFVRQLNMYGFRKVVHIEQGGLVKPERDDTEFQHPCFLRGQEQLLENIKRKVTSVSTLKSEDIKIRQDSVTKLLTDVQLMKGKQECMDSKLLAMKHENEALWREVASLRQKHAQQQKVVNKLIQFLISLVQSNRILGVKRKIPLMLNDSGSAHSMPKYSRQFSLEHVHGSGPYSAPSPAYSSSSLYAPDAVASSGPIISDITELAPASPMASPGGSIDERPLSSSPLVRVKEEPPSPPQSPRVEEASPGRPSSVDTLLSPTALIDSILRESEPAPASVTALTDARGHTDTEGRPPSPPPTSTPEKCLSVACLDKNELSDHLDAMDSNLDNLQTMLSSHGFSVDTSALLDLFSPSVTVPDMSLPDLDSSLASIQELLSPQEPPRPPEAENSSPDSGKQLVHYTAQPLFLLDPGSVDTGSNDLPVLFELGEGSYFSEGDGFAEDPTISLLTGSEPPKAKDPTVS
- Protocol summary: Inhibition of recombinant human HSF1 expressed in Escherichia coli BL21 (DE3) assessed as reduction in HSF1 trimer-5-fluorescein labeled HSE interaction preincubated for 1 hr followed by DNA tracer addition and measured after 15 mins by competitive fluorescence polarization assay
pIC50: −log10 of the molar value.
Readout kind: pIC50

[a] Ac-HLDAMDSNLDNLQTMLSSHGFSVDTSALLD-NH2
[b] Ac-DKNELSDHLDAMDSNL-NH2
Query: Consider entries a and b . Which has the numerically lower pIC50? # answer = label of selected item
Result: a
(a: 3.82, b: 4.89)
